# TESTED TARGET: Mouse membrane‐bound CD73 (membrane preparation of 4T1.2 breast cancer cell line) (Mus musculus)
# Construct: endogenous in cells
# Sequence (Q61503 29-576): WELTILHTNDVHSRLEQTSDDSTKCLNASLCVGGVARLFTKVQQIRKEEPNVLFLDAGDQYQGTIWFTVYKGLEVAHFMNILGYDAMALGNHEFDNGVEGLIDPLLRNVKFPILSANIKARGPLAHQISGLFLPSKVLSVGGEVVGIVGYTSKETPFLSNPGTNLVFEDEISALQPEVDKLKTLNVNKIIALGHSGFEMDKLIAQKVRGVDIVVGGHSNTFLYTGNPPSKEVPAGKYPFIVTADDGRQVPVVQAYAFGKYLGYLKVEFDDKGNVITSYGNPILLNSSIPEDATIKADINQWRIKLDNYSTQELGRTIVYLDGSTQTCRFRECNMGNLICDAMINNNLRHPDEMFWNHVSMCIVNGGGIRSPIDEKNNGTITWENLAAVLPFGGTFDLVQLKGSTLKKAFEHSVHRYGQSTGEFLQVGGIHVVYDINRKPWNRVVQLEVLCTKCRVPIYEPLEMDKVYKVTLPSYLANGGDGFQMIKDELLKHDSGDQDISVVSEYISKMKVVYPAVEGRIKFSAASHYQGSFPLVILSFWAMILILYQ
# EXPERIMENTAL DETAILS: CD73 enzyme inhibition assay, mouse membrane-bound CD73
# SETUP CONDITIONS: membrane preparation of mouse 4T1.2 breast cancer cell line, Km 67.6 µM, substrate AMP (5 µM)
ASSAY READOUT: pKi
Answers are plain numbers, as −log10 of the molar value.

Reported pKi ( CCCN(Cc1ccc(-c2cn(CCF)nn2)cc1)c1nc(Cl)nc2c1ncn2[C@@H]1O[C@H](COP(=O)(O)CP(=O)(O)O)[C@@H](O)[C@H]1O [compound 1] ) = 7.32

Hello, the source for this data is paper PMC13077603, in case you need it.
